B1: glmS ribozyme (parent)
chain: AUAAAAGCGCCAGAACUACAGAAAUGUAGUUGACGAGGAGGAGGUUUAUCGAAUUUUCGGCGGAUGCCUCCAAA

# Variants of: B1
# assay-method-text: self-cleavage kobs at 10000 uM GlcN6P; higher = faster cleavage; RNA array
# condition-details: with glucosamine-6-phosphate
Fewer inactive variants are shown than the library holds.
# self-cleavage kobs at 10000 uM GlcN6P per record follows

# example entries with known answers
// self-cleavage kobs at 10000 uM GlcN6P value for G7U U47A U57G : < 1e-05 s⁻¹

Lab book: self-cleavage kobs at 10000 uM GlcN6P of U30C G43C noted as < 1e-05 s⁻¹

// self-cleavage kobs at 10000 uM GlcN6P lookup, variant = G32A C34U G51C , result: < 1e-05 s⁻¹

New cases:
What the record says about U30A U49C : self-cleavage kobs at 10000 uM GlcN6P is < 1e-05 s⁻¹

Looking up C34U G63C C68G , I see its self-cleavage kobs at 10000 uM GlcN6P listed as < 1e-05 s⁻¹

// A33U G44C C68U : self-cleavage kobs at 10000 uM GlcN6P value = < 1e-05 s⁻¹

Data point: C34G G41A G44U A53U ; self-cleavage kobs at 10000 uM GlcN6P = < 1e-05 s⁻¹

// field: self-cleavage kobs at 10000 uM GlcN6P; key: G29C A36U A39G G63U ; value = < 1e-05 s⁻¹

Summary for this variant, G29U C34G : self-cleavage kobs at 10000 uM GlcN6P is < 1e-05 s⁻¹

Per the record, C8G A14G A33U has self-cleavage kobs at 10000 uM GlcN6P of < 1e-05 s⁻¹

Please fill in: self-cleavage kobs at 10000 uM GlcN6P reported for G41A C58G = < 1e-05 s⁻¹

Input G43U C61U C68U . Output self-cleavage kobs at 10000 uM GlcN6P: < 1e-05 s⁻¹

For G43C A48U G51C G63A C71U the variant record lists self-cleavage kobs at 10000 uM GlcN6P as < 1e-05 s⁻¹

self-cleavage kobs at 10000 uM GlcN6P recorded for this variant, G9A A53C G62A C70G , is < 1e-05 s⁻¹
